Values compiled from ChEMBL document CHEMBL5724581.

- Test system: B cell
- PROTOCOL: Cytotoxicity screening of chemical probes in isolated B cell assay. Data is normalized to DMSO control, the cell viability average of replicates are reported. Reduction of ATP level more than 20% indicate compromised cell health status.
- CONDITION_DESCRIPTION: human, 1 µM
List of Cell Viability values.
MEASURED_METRIC: Cell Viability (%)

| COMPOUND | TESTED_SYSTEM | READING |
| --- | --- | --- |
| Cc1cc(OCCCS(C)(=O)=O)cc(C)c1-c1cccc(COc2ccc3c(c2)OC[C@H]3CC(=O)O)c1 | B cell | 98.0011 |
| O=C(NCc1ccc(F)cc1)N1CCN2C(=O)OC(c3ccccc3)(c3ccccc3)C2C1 (centres undefined) | B cell | 98.0011 |
| Cl.Clc1ccc2nsnc2c1NC1=NCCN1 [TIZANIDINE HYDROCHLORIDE] | B cell | 98.0011 |
| COCCn1c(C)c(C)s/c1=N\C(=O)C1C(C)(C)C1(C)C | B cell | 98.0011 |
| Cc1c(F)cccc1NC(=O)Nc1ccc(Cl)c(S(=O)(=O)[C@H]2CCCNC2)c1O | B cell | 101.889 |
| COc1ccc(C(=O)N2CCN(C(=O)/C=C/c3ccc(Br)cc3)CC2)cc1 | B cell | 98.0011 |
| CC(C)N(CCCCOCC(=O)NS(C)(=O)=O)c1cnc(-c2ccccc2)c(-c2ccccc2)n1 | B cell | 98.0011 |
| COC(c1ccccc1)(c1ccccc1)[C@H](Oc1nc(C)cc(C)n1)C(=O)O | B cell | 98.0011 |
| Cc1nnc(C(=O)NC(C)(C)c2nc(C(=O)NCc3ccc(F)cc3)c(O)c(=O)n2C)o1 | B cell | 103.493 |
